Exercise: for every item that follows, state its recorded one-hybrid fitness for binding parS DNA.
B1: Caulobacter ParB omega fusion; a variant is named by its letters at X, in order, B8GW30 (parent)
chain: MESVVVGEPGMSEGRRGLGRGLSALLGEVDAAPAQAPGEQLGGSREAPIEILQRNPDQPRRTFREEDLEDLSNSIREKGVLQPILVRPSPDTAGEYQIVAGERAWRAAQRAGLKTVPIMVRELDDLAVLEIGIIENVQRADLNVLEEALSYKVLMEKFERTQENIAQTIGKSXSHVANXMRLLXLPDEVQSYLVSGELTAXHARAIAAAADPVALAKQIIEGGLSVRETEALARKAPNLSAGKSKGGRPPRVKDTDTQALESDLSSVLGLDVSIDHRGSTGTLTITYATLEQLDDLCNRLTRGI

Variants of: B1
assay: one-hybrid fitness for binding parS DNA (scaled: cognate 1, non-cognate 0); higher = stronger binding
test.context: with parS DNA site
The full ranking holds about 81,000 sequences; the median of “one-hybrid fitness for binding parS DNA” is about -0.17, and the highest 2% start at about 0.51. The sample holds the highest values, similar sequences and a random draw of the others, so the mix is not that of the screen.

Task item: Consider the variant shown here: RQYK What is its recorded one-hybrid fitness for binding parS DNA?
Reply: ≤ 0.2

Task item: Quick one: one-hybrid fitness for binding parS DNA of RMID ?
Reply: ≤ 0.2

Task item: I have this variant here, AKTQ , and I need its recorded one-hybrid fitness for binding parS DNA.
Reply: ≤ 0.2

Task item: Can you look up the measured one-hybrid fitness for binding parS DNA of RPEG for me?
Reply: ≤ 0.2

Task item: Need one-hybrid fitness for binding parS DNA, item RQKD
Reply: ≤ 0.2

Task item: Need one-hybrid fitness for binding parS DNA, item RMHD
Reply: ≤ 0.2

Task item: Entry under review: NFFG . Reported one-hybrid fitness for binding parS DNA?
Reply: ≤ 0.2

Task item: Look at this variant and give its reported one-hybrid fitness for binding parS DNA. ELVS
Reply: ≤ 0.2

Task item: Fill blank: measured one-hybrid fitness for binding parS DNA of the variant ANVG is ____.
Reply: ≤ 0.2

Task item: // one-hybrid fitness for binding parS DNA lookup, key: RIMC
Reply: 0.986

Task item: Give the measured one-hybrid fitness for binding parS DNA of RQNQ .
Reply: ≤ 0.2

Task item: Any idea what its one-hybrid fitness for binding parS DNA is? The variant is RLKP
Reply: ≤ 0.2

Task item: Would you mind telling me what one-hybrid fitness for binding parS DNA value was observed for GIMG ?
Reply: ≤ 0.2

Task item: Give its one-hybrid fitness for binding parS DNA value. Item: RMGA
Reply: 0.573

Task item: Tell me the measured one-hybrid fitness for binding parS DNA of RFGA , please.
Reply: 0.531

Task item: What value of measured one-hybrid fitness for binding parS DNA is listed for RRMC ?
Reply: 0.625

Task item: What one-hybrid fitness for binding parS DNA value was documented for this variant, RQQF ?
Reply: 0.28

Task item: So what's the measured one-hybrid fitness for binding parS DNA for this one? FTMR
Reply: ≤ 0.2

Task item: # get_value(readout='one-hybrid fitness for binding parS DNA', item= YKNL )
Reply: ≤ 0.2

Task item: # input variant: QSMI ; wanted: its one-hybrid fitness for binding parS DNA
Reply: ≤ 0.2

Task item: For TREM , what is its reported one-hybrid fitness for binding parS DNA?
Reply: ≤ 0.2

Task item: Which one-hybrid fitness for binding parS DNA reading was recorded for the variant RQKP ?
Reply: ≤ 0.2

Task item: Field request: one-hybrid fitness for binding parS DNA | item: PFGA
Reply: ≤ 0.2

Task item: Could you share which one-hybrid fitness for binding parS DNA value was measured for RRMD ?
Reply: ≤ 0.2

Task item: Please report the recorded one-hybrid fitness for binding parS DNA for RDMC .
Reply: ≤ 0.2

Task item: Form field: reported one-hybrid fitness for binding parS DNA of RQVN
Reply: 0.316

Task item: Any idea what its one-hybrid fitness for binding parS DNA is? The variant is RTGA
Reply: 0.679

Task item: Requested read-out: one-hybrid fitness for binding parS DNA. Entry: RQKS
Reply: 0.864

Task item: Any idea what one-hybrid fitness for binding parS DNA was measured for SQSF ?
Reply: ≤ 0.2

Task item: Item RREG has what recorded one-hybrid fitness for binding parS DNA?
Reply: 0.915

Task item: Need one-hybrid fitness for binding parS DNA, item RKHN
Reply: 0.375

Task item: Would you mind telling me what one-hybrid fitness for binding parS DNA value was observed for RHEH ?
Reply: ≤ 0.2

Task item: Given the variant SEDR , what is its reported one-hybrid fitness for binding parS DNA?
Reply: ≤ 0.2

Task item: Fill in: one-hybrid fitness for binding parS DNA of DNPV is ___
Reply: ≤ 0.2

Task item: Entry under review: YPGT . Reported one-hybrid fitness for binding parS DNA?
Reply: ≤ 0.2

Task item: Quick check: one-hybrid fitness for binding parS DNA of YAER ?
Reply: ≤ 0.2

Task item: # query: one-hybrid fitness for binding parS DNA of entry RLVK
Reply: ≤ 0.2

Task item: Need one-hybrid fitness for binding parS DNA, item RQVY
Reply: 0.375

Task item: Value lookup for one-hybrid fitness for binding parS DNA; key = RQKY
Reply: 0.581

Task item: Tell me the measured one-hybrid fitness for binding parS DNA of RMPD , please.
Reply: ≤ 0.2

Task item: // lookup one-hybrid fitness for binding parS DNA for QVQQ
Reply: ≤ 0.2

Task item: Which one-hybrid fitness for binding parS DNA reading was recorded for the variant RCHS ?
Reply: 0.953

Task item: Entry RFAG has what one-hybrid fitness for binding parS DNA?
Reply: 0.941

Task item: Given the variant DLKH , what is its reported one-hybrid fitness for binding parS DNA?
Reply: ≤ 0.2

Task item: Request the reported one-hybrid fitness for binding parS DNA associated with EWYV
Reply: ≤ 0.2

Task item: Fill blank: measured one-hybrid fitness for binding parS DNA of the variant GDRF is ____.
Reply: ≤ 0.2

Task item: Endpoint output: one-hybrid fitness for binding parS DNA of RIMN . Value?
Reply: 0.39

Task item: Suppose we examine the variant FKTR ; what one-hybrid fitness for binding parS DNA value has been reported?
Reply: ≤ 0.2

Task item: I am curious: what one-hybrid fitness for binding parS DNA value has been reported for ETGA ?
Reply: ≤ 0.2

Task item: Look up one-hybrid fitness for binding parS DNA for this variant: RREY
Reply: 0.295

Task item: Field request: one-hybrid fitness for binding parS DNA | item: RDEG
Reply: ≤ 0.2

Task item: What value of measured one-hybrid fitness for binding parS DNA is listed for RFHP ?
Reply: ≤ 0.2

Task item: Report one-hybrid fitness for binding parS DNA for RHEP please.
Reply: ≤ 0.2

Task item: May I ask what one-hybrid fitness for binding parS DNA has been recorded for RQYY ?
Reply: 0.494

Task item: Look up one-hybrid fitness for binding parS DNA: LCRP
Reply: ≤ 0.2

Task item: Quick one: one-hybrid fitness for binding parS DNA of EHMG ?
Reply: ≤ 0.2

Task item: So what's the measured one-hybrid fitness for binding parS DNA for this one? VPLK
Reply: ≤ 0.2

Task item: Using the record for DVWS , report its one-hybrid fitness for binding parS DNA.
Reply: ≤ 0.2

Task item: Dear colleague, I am looking for the recorded one-hybrid fitness for binding parS DNA of the following variant: WLTK
Reply: ≤ 0.2

Task item: Fill in: one-hybrid fitness for binding parS DNA of RMHS is ___
Reply: 0.979

Task item: // query one-hybrid fitness for binding parS DNA value for entry RKKD
Reply: ≤ 0.2

Task item: If you can, please state the reported one-hybrid fitness for binding parS DNA value of HELA .
Reply: ≤ 0.2

Task item: Please give the measured one-hybrid fitness for binding parS DNA for this variant: SMHF
Reply: ≤ 0.2

Task item: So what does the record say about one-hybrid fitness for binding parS DNA for RKKP ?
Reply: ≤ 0.2

Task item: Entry LTQT : reported one-hybrid fitness for binding parS DNA = ?
Reply: ≤ 0.2

Task item: Which one-hybrid fitness for binding parS DNA is listed for RCMC ?
Reply: 0.976

Task item: Entry under review: RLMP . Reported one-hybrid fitness for binding parS DNA?
Reply: 0.229

Task item: Can you look up the measured one-hybrid fitness for binding parS DNA of RPMC for me?
Reply: ≤ 0.2

Task item: Endpoint output: one-hybrid fitness for binding parS DNA of RIMD . Value?
Reply: 0.234

Task item: So what does the record say about one-hybrid fitness for binding parS DNA for RPHS ?
Reply: ≤ 0.2

Task item: Quick check: one-hybrid fitness for binding parS DNA of NDWV ?
Reply: ≤ 0.2

Task item: # lookup: one-hybrid fitness for binding parS DNA of RMPN
Reply: 0.262

Task item: What value of one-hybrid fitness for binding parS DNA has been recorded for this entry: RCEG
Reply: 0.915

Task item: # query: one-hybrid fitness for binding parS DNA of entry LLVN
Reply: ≤ 0.2

Task item: Need one-hybrid fitness for binding parS DNA of YTPT , thanks.
Reply: ≤ 0.2

Task item: Requested read-out: one-hybrid fitness for binding parS DNA. Entry: PSAR
Reply: ≤ 0.2

Task item: Look up one-hybrid fitness for binding parS DNA for this variant: EVAF
Reply: ≤ 0.2

Task item: Endpoint output: one-hybrid fitness for binding parS DNA of DTGA . Value?
Reply: ≤ 0.2

Task item: I am curious: what one-hybrid fitness for binding parS DNA value has been reported for RKVG ?
Reply: 0.942

Task item: # lookup: one-hybrid fitness for binding parS DNA of RMHN
Reply: 0.482

Task item: For the variant shown here, WPTL , give the reported one-hybrid fitness for binding parS DNA.
Reply: ≤ 0.2

Task item: // returns reported one-hybrid fitness for binding parS DNA for input DMGA
Reply: ≤ 0.2

Task item: I'd like to know its one-hybrid fitness for binding parS DNA. The variant in question is RLVG
Reply: 0.991
